- method-description: basal 3T3-L1 adipocyte mitochondrial potential changes, profiling panel, cell-based, JC-1 fluorescence, 3T3-L1 adipocytes, 24 h, 100 nL compound (AID 1168); also: test concentration not given here
- condition-summary: JC-1 mitochondrial fluorescence, higher = more signal, called active from +8 up or from −8 down
measure: z-score
The response must contain the number and no unit.

Request: Requested read-out: z-score. Entry: "C[N+](C)(C)CCCC[C@@H]1NC(=O)[C@H]2C[C@@H](C(=O)NCCCCCN)[C@@H](c3ccc(O)cc3)N2C1=O"
Response: -0.359

Request: What does the record list as z-score for "COc1ccc([Si](C)(C)[C@@H]2[C@@H](CC(=O)N3Cc4ccccc4C[C@H]3CO)O[C@]3(C(=O)N(Cc4ccc(I)cc4)c4ccccc43)[C@H]2C)cc1" ?
Response: 0.124
